What rIP was measured for each of the following?
- assayed.target: Siglec-2 (CD22) (Homo sapiens)
- Sequence (P20273 20-847): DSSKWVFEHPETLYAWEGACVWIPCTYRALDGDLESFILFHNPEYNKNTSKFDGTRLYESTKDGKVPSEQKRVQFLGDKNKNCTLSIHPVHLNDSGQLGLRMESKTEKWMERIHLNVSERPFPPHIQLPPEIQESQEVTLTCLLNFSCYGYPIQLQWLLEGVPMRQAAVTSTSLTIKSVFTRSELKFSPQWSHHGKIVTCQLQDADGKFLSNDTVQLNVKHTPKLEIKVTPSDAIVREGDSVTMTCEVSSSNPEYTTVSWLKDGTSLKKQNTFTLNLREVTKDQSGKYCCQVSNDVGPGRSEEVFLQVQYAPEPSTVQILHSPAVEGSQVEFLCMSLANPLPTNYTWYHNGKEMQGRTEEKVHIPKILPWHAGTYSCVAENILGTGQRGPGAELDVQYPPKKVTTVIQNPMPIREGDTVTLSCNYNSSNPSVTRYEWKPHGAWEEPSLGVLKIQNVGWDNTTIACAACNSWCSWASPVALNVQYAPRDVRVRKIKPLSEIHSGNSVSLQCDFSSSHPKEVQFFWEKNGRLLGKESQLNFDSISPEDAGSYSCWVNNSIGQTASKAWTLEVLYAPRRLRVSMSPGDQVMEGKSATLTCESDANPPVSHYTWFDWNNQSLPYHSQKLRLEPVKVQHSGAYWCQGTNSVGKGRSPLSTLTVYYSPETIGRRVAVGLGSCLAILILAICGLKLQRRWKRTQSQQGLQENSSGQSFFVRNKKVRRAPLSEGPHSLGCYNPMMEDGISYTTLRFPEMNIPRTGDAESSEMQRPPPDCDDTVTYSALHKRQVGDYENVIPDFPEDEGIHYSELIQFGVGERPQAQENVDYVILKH
- experimental.protocol: new affinity assay: displacement of biotinylated compound 155 from sialidase-treated Daudi cells, FACS with streptavidin-PE
- Type: binding
- Set-up: endogenous in cells; host or cells: Daudi (human B-cell lymphoma line)
- study.conditions: Table II; rIP values set relative to compound 38; Daudi cells, displacement of compound 155

Ask | I would be grateful if you could share the reported rIP for CC(=O)N[C@H]1[C@H]([C@H](O)[C@H](O)CNC(=O)c2ccc(-c3ccccn3)cc2)O[C@@](OCCCSCCNC(=O)c2ccc(C(=O)NCCSCCCO[C@]3(C(=O)[O-])C[C@H](O)[C@@H](NC(C)=O)[C@H]([C@H](O)[C@H](O)CNC(=O)c4ccc(-c5ccccn5)cc4)O3)cc2)(C(=O)[O-])C[C@@H]1O.[Na+].[Na+] [Compound 77] .
Reply | 95

Ask | Okay, and CC(=O)N[C@H]1[C@H]([C@H](O)[C@H](O)CNC(=O)c2ccc(-c3ccccc3)cc2)O[C@@](OCCCSCCNC(=O)c2ccc(C(=O)NCCSCCCO[C@]3(C(=O)[O-])C[C@H](O)[C@@H](NC(C)=O)[C@H]([C@H](O)[C@H](O)CNC(=O)c4ccc(-c5ccccc5)cc4)O3)c3ccccc23)(C(=O)[O-])C[C@@H]1O.[Na+].[Na+] [Compound 34] ?
Reply | 899

Ask | Further, for CC(=O)N[C@H]1[C@H]([C@H](O)[C@H](O)CNC(=O)Cc2ccc3ccccc3c2)O[C@@](OCCCSCCNC(=O)c2ccc(C(=O)NCCSCCCO[C@]3(C(=O)[O-])C[C@H](O)[C@@H](NC(C)=O)[C@H]([C@H](O)[C@H](O)CNC(=O)Cc4ccc5ccccc5c4)O3)cc2)(C(=O)[O-])C[C@@H]1O.[Na+].[Na+] [Compound 66] ?
Reply | 197

Ask | Item: CC(=O)N[C@H]1[C@H]([C@H](O)[C@H](O)CNC(=O)c2ccc(-c3ccccc3)cc2)O[C@@](OCCCSCCNc2c(NCCSCCCO[C@]3(C(=O)[O-])C[C@H](O)[C@@H](NC(C)=O)[C@H]([C@H](O)[C@H](O)CNC(=O)c4ccc(-c5ccccc5)cc4)O3)c(=O)c2=O)(C(=O)[O-])C[C@@H]1O.[Na+].[Na+] [Compound 51]
Reply | 299

Ask | Next up: CC(=O)N[C@H]1[C@H]([C@H](O)[C@H](O)CNC(=O)c2ccc(-c3ccccc3)cc2)O[C@@](OCCCSCCC(=O)Nc2ccc(NC(=O)CCSCCCO[C@]3(C(=O)[O-])C[C@H](O)[C@@H](NC(C)=O)[C@H]([C@H](O)[C@H](O)CNC(=O)c4ccc(-c5ccccc5)cc4)O3)cc2)(C(=O)[O-])C[C@@H]1O.[Na+].[Na+] [Compound 39]
Reply | 10760

Ask | And then CC(=O)N[C@H]1[C@H]([C@H](O)[C@H](O)CNC(=O)c2ccc(-c3ccccc3)cc2)O[C@@](OCCCSCCC(=O)Nc2c(C)c(C)c(NC(=O)CCSCCCO[C@]3(C(=O)[O-])C[C@H](O)[C@@H](NC(C)=O)[C@H]([C@H](O)[C@H](O)CNC(=O)c4ccc(-c5ccccc5)cc4)O3)c(C)c2C)(C(=O)[O-])C[C@@H]1O.[Na+].[Na+] [Compound 45] , what is it?
Reply | 523
